This document collects pKd values reported for α7 nAChR (Homo sapiens, UniProt P36544).
Positions of bridges follow the written chain, without caps; N, C: chain ends. Non-standard residues stand in square brackets, D forms with d. Residues, ends and D or L forms follow the SMILES beside them. Bip = N[C@@H](Cc1ccc(-c2ccccc2)cc1)C(=O)O; Hyp = O=C(O)[C@@H]1C[C@@H](O)CN1; Nle = CCCC[C@H](N)C(=O)O; Orn = NCCC[C@H](N)C(=O)O
Answer as the number alone; pKd is minus log10 of concentration in mol/L.

Some entries whose results are on file:
Fill in pKd for record CC(C)C[C@H](NC(=O)[C@@H](NC(=O)[C@H]1CSSC[C@H](NC(=O)[C@H](CO)NC(=O)CN)C(=O)N[C@@H](CO)C(=O)N[C@H]([C@H](C)O)C(=O)N2CCC[C@H]2C(=O)N2CCC[C@H]2C(=O)N[C@@H](CO)C(=O)N1)C(C)C)C(=O)N[C@@H](Cc1ccc(O)cc1)C(=O)N[C@@H](CCCN)C(N)=O [AJ003-33] (H-GSCS[dT]PPS[dC]VLY[Orn]-NH2; disulfide 3-9)
6.40

Fill in pKd for record CC(C)C[C@@H](NC(=O)[C@H](NC(=O)[C@H]1CSSC[C@@H](NC(=O)[C@@H](CO)NC(=O)CN)C(=O)N[C@H](CO)C(=O)N[C@H]([C@H](C)O)C(=O)N2CCC[C@@H]2C(=O)N2CCC[C@@H]2C(=O)N[C@H](CO)C(=O)N1)C(C)C)C(=O)N[C@H](Cc1ccc(O)cc1)C(=O)N[C@H](CO)C(=O)O [AJ003-6] (H-G[dS][dC][dS][dT][dP][dP][dS][dC][dV][dL][dY][dS]-OH; disulfide 3-9)
6.27

Fill in pKd for record CC(C)C[C@H](NC(=O)[C@@H](NC(=O)[C@H]1CSSC[C@H](NC(=O)[C@H](CO)NC(=O)CN)C(=O)N[C@@H](CO)C(=O)N[C@H]([C@H](C)O)C(=O)N2CCC[C@H]2C(=O)N2CCC[C@H]2C(=O)N[C@@H](CO)C(=O)N1)C(C)C)C(=O)N[C@@H](Cc1ccc(O)cc1)C(=O)N[C@@H](CO)C(N)=O [AJ003-4] (H-GSCS[dT]PPS[dC]VLYS-NH2; disulfide 3-9)
6.47

Continuing:
Fill in pKd for record CC(C)C[C@H](NC(=O)[C@@H](NC(=O)[C@H]1CSSC[C@H](NC(=O)[C@H](CO)NC(=O)CN)C(=O)N[C@@H](CO)C(=O)N[C@H]([C@H](C)O)C(=O)N2CCC[C@H]2C(=O)N2CCC[C@H]2C(=O)N[C@@H](CO)C(=O)N1)C(C)C)C(=O)N[C@@H](Cc1ccc(-c2ccccc2)cc1)C(=O)N[C@@H](CO)C(=O)O [AJ003-32] (H-GSCS[dT]PPS[dC]VL[Bip]S-OH; disulfide 3-9)
6.43

Fill in pKd for record CCCC[C@H](NC(=O)[C@@H](NC(=O)[C@H]1CSSC[C@H](NC(=O)[C@H](CO)NC(=O)CN)C(=O)N[C@@H](CO)C(=O)N[C@H]([C@H](C)O)C(=O)N2C[C@H](O)C[C@H]2C(=O)N2C[C@H](O)C[C@H]2C(=O)N[C@@H](CO)C(=O)N1)C(C)C)C(=O)N[C@@H](Cc1ccc(-c2ccccc2)cc1)C(=O)N[C@@H](CCCN)C(N)=O [AJ003-34] (H-GSCS[dT][Hyp][Hyp]S[dC]V[Nle][Bip][Orn]-NH2; disulfide 3-9)
6.44
